Measured values drawn from patent US20260092057A1 for this set.

System: Caki-2 cells
EXPERIMENT DESCRIPTION: CTG (CellTiter-Glo) cell viability assay, Caki-2
Assay type: cell-based
CONDITION: Homo sapiens, CAKI-2, 72 h, Caki-2, 3-day; read-out: CTG Chempartner/PHA- Caki-2 3-day: Average external-IC50
pIC50: −log10 of the molar value.
Kindly state pIC50 for each of the entries shown.

Some entries whose results are on file:
INSERT INTO assay_data (chemical_smiles, endpoint_value) VALUES
  ('Cc1ncsc1-c1ccc([C@H](C)NC(=O)[C@@H]2C[C@@H](O)CN2C(=O)[C@@H](NC(=O)CCCCCCC(=O)N2CCN(C(=O)c3ccc(-c4ccc(Cl)cc4)c(CN4CCN(c5ccc(C(=O)NS(=O)(=O)c6ccc(N[C@H](CCN(C)C)CSc7ccccc7)c([N+](=O)[O-])c6)cc5)CC4)c3)CC2)C(C)(C)C)cc1', '< 4.52'),
  ('Cc1ncsc1-c1ccc([C@H](C)NC(=O)[C@@H]2C[C@@H](O)CN2C(=O)[C@@H](NC(=O)CCCCC(=O)N2C[C@H]3C[C@@H]2CN3Cc2ccc(-c3ccc(Cl)cc3)c(CN3CCN(c4ccc(C(=O)NS(=O)(=O)c5ccc(N[C@H](CCN(C)C)CSc6ccccc6)c([N+](=O)[O-])c5)cc4)CC3)c2)C(C)(C)C)cc1', '< 4.52');

Lab note: next compound to report on.
Q: Jot down pIC50 (Caki-2 cells) of "Cc1ncsc1-c1ccc([C@H](C)NC(=O)[C@@H]2C[C@@H](O)CN2C(=O)[C@@H](NC(=O)CCCCCC(=O)N2CCN(CCCNc3ccc(S(=O)(=O)NC(=O)c4ccc(N5CCN(Cc6ccccc6-c6ccc(Cl)cc6)CC5)cc4Oc4cnc5[nH]ccc5c4)cc3S(=O)(=O)C(F)(F)F)CC2)C(C)(C)C)cc1" .
Ans: < 4.52

###

TARGET UNDER TEST: BCL-XL (Homo sapiens, UniProt Q07817)
Construct: BCL-XL degradation results in MOLT-4 cells for compounds of the invention; endogenous in cells; host or cells: MOLT-4
Sequence (Q07817 whole entry): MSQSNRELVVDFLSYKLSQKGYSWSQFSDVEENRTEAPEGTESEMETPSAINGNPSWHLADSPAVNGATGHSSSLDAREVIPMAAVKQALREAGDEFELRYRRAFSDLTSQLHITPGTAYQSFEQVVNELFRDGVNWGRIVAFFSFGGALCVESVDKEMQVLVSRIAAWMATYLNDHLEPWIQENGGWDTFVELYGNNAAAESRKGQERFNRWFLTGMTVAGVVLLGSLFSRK
EXPERIMENT DESCRIPTION: BCL-XL degradation assay in MOLT-4 cells (ELISA, 6 h)
Assay type: cell-based
CONDITION: read-out: Bcl-xL ELISA in MOLT-4 degradation 6 h: External Abs-DC50
RESULT TYPE: DC50

Some entries whose results are on file:
INSERT INTO measurements (molecule, endpoint_value) VALUES
  ('Cc1ncsc1-c1ccc([C@H](C)NC(=O)[C@@H]2C[C@@H](O)CN2C(=O)[C@@H](NC(=O)CCCCCN2CCN(CCCNc3ccc(S(=O)(=O)NC(=O)c4ccc(N5CCN(CC6=C(c7ccc(Cl)cc7)CC(C)(C)CC6)CC5)cc4Oc4cnc5[nH]ccc5c4)cc3S(=O)(=O)C(F)(F)F)CC2)C(C)(C)C)cc1', '500 to 1000 nM'),
  ('Cc1ncsc1-c1ccc([C@H](C)NC(=O)[C@@H]2C[C@@H](O)CN2C(=O)[C@@H](NC(=O)CCCCCCN(C)CC[C@H](CSc2ccccc2)Nc2ccc(S(=O)(=O)NC(=O)c3ccc(N4CCC([C@@H](O)c5ccccc5-c5ccc(Cl)cc5)CC4)cc3)cc2S(=O)(=O)C(F)(F)F)C(C)(C)C)cc1', '10 to 100 nM'),
  ('C#Cc1ccc([C@H](C)NC(=O)[C@@H]2C[C@@H](O)CN2C(=O)[C@@H](NC(=O)CCCCCC(=O)N2CCN(CC[C@H](CSc3ccccc3)Nc3ccc(S(=O)(=O)NC(=O)c4ccc(N5CCC([C@H](O)c6ccccc6-c6ccc(Cl)cc6)CC5)cc4)cc3S(=O)(=O)C(F)(F)F)CC2)C(C)(C)C)cc1 (single isomer, unassigned)', '100 to 500 nM'),
  ('Cc1ncsc1-c1ccc([C@H](C)NC(=O)[C@@H]2C[C@@H](O)CN2C(=O)[C@@H](NC(=O)CCCCCCN(C)CC[C@H](CSc2ccccc2)Nc2ccc(S(=O)(=O)NC(=O)c3ccc(N4CCN(Cc5ccccc5-c5ccc(Cl)cc5)CC4)cc3)cc2[N+](=O)[O-])C(C)(C)C)cc1', '500 to 1000 nM'),
  ('Cc1ncsc1-c1ccc([C@H](C)NC(=O)[C@@H]2C[C@@H](O)CN2C(=O)[C@@H](NC(=O)CCCCCC(=O)N2CCN(CC[C@H](CSc3ccccc3)Nc3ccc(S(=O)(=O)NC(=O)c4ccc(N5CCN(Cc6ccccc6-c6ccc(Cl)cc6)CC5)cc4)cc3[N+](=O)[O-])CC2)C(C)(C)C)cc1', '10 to 100 nM'),
  ('Cc1ncsc1-c1ccc([C@H](C)NC(=O)[C@@H]2C[C@@H](O)CN2C(=O)[C@@H](NC(=O)CCCCCC(=O)N2CCCN(CCCNc3ccc(S(=O)(=O)NC(=O)c4ccc(N5CCN(CC6=C(c7ccc(Cl)cc7)CC(C)(C)CC6)CC5)cc4Oc4cnc5[nH]ccc5c4)cc3S(=O)(=O)C(F)(F)F)CC2)C(C)(C)C)cc1', '10 to 100 nM');

Provide the reported DC50 of each entry below, same order.
1. Cc1ncsc1-c1ccc([C@H](C)NC(=O)[C@@H]2C[C@@H](O)CN2C(=O)[C@@H](NC(=O)CCCC(=O)N2CCN(CCCNc3ccc(S(=O)(=O)NC(=O)c4ccc(N5CCC([C@H](O)c6ccccc6-c6ccc(Cl)cc6)CC5)cc4Oc4cnc5[nH]ccc5c4)cc3S(=O)(=O)C(F)(F)F)CC2)C(C)(C)C)cc1 (single isomer, unassigned)
2. Cc1ncsc1-c1ccc([C@H](C)NC(=O)[C@@H]2C[C@@H](O)CN2C(=O)[C@@H](NC(=O)CCCCCC(=O)N2CCCN(CC[C@H](CSc3ccccc3)Nc3ccc(S(=O)(=O)NC(=O)c4ccc(N5CCN([C@@H](O)c6ccccc6-c6ccc(Cl)cc6)CC5)cc4)cc3S(=O)(=O)C(F)(F)F)CC2)C(C)(C)C)cc1
3. Cc1ncsc1-c1ccc([C@H](C)NC(=O)[C@@H]2C[C@@H](O)CN2C(=O)[C@@H](NC(=O)CCCCCC(=O)N2CCC(NCC[C@H](CSc3ccccc3)Nc3ccc(S(=O)(=O)NC(=O)c4ccc(N5CCN([C@@H](O)c6ccccc6-c6ccc(Cl)cc6)CC5)cc4)cc3S(=O)(=O)C(F)(F)F)CC2)C(C)(C)C)cc1
4. Cc1ncsc1-c1ccc(CNC(=O)[C@@H]2C[C@@H](O)CN2C(=O)[C@@H](NC(=O)CCCCCC(=O)N2CC3(CN(CC[C@H](CSc4ccccc4)Nc4ccc(S(=O)(=O)NC(=O)c5ccc(N6CCN([C@@H](O)c7ccccc7-c7ccc(Cl)cc7)CC6)cc5)cc4S(=O)(=O)C(F)(F)F)C3)C2)C(C)(C)C)cc1
5. Cc1ncsc1-c1ccc(CNC(=O)[C@@H]2C[C@@H](O)CN2C(=O)[C@@H](NC(=O)CCCCCCC(=O)N2CCN(C[C@]3(C)CCC(c4ccc(Cl)cc4)=C(CN4CCN(c5ccc(C(=O)NS(=O)(=O)c6ccc(NCCCN7CCOCC7)c(S(=O)(=O)C(F)(F)F)c6)c(Oc6cnc7[nH]ccc7c6)c5)CC4)C3)CC2)C(C)(C)C)cc1 [I-134]

Ans:
["500 to 1000 nM", "< 10 nM", "500 to 1000 nM", "10 to 100 nM", "500 to 1000 nM"]

Provide the reported DC50 of each entry below, same order.
1. Cc1ncsc1-c1ccc([C@H](C)NC(=O)[C@@H]2C[C@@H](O)CN2C(=O)[C@@H](NC(=O)CCCCCC(=O)N2CCN(CCCN(C)CC[C@H](CSc3ccccc3)Nc3ccc(S(=O)(=O)NC(=O)c4ccc(N5CCC([C@@H](O)c6ccccc6-c6ccc(Cl)cc6)CC5)cc4)cc3S(=O)(=O)C(F)(F)F)CC2)C(C)(C)C)cc1
2. Cc1ncsc1-c1ccc([C@H](C)NC(=O)[C@@H]2C[C@@H](O)CN2C(=O)[C@@H](NC(=O)CCCCCN(C)CCCNc2ccc(S(=O)(=O)NC(=O)c3ccc(N4CCC([C@H](O)c5ccccc5-c5ccc(Cl)cc5)CC4)cc3Oc3cnc4[nH]ccc4c3)cc2S(=O)(=O)C(F)(F)F)C(C)(C)C)cc1

Ans:
500 to 1000 nM
500 to 1000 nM
